A set of molecules tested on Myosin light chain kinase, smooth muscle (Homo sapiens, UniProt Q15746), with measured Kd:
Activity calls are given as the source filed them.

molecule	target system	Kd
C[C@@H](Nc1cc(F)cc(F)c1)c1cc(C(=O)N(C)C)cc2c(=O)cc(N3CCOCC3)oc12 [AZD-8186]	Myosin light chain kinase, smooth muscle (Homo sapiens, UniProt Q15746)	> 30 µM (inactive)
Cc1ccc(NC(=O)c2ccc(CN3CC[C@H](N(C)C)C3)c(C(F)(F)F)c2)cc1Nc1nccc(-c2cncnc2)n1 [BAFETINIB]	Myosin light chain kinase, smooth muscle (Homo sapiens, UniProt Q15746)	1.21 µM
Cc1cc(-c2cc(O)ccc2Cl)cc2nnc(Nc3ccc(OCCN4CCCC4)cc3)nc12	Myosin light chain kinase, smooth muscle (Homo sapiens, UniProt Q15746)	> 30 µM (inactive)
CO[C@H]1C[C@@H]2CC[C@@H](C)[C@@](O)(O2)C(=O)C(=O)N2CCCC[C@H]2C(=O)O[C@H]([C@H](C)C[C@@H]2CC[C@@H](OCCO)[C@H](OC)C2)CC(=O)[C@H](C)/C=C(\C)[C@@H](O)[C@@H](OC)C(=O)[C@H](C)C[C@H](C)/C=C/C=C/C=C/1C [EVEROLIMUS]	Myosin light chain kinase, smooth muscle (Homo sapiens, UniProt Q15746)	> 30 µM (inactive)
CC[C@@H]1C(=O)N(C)c2cnc(Nc3ccc(C(=O)N[C@H]4CC[C@H](N5CCN(CC6CC6)CC5)CC4)cc3OC)nc2N1C(C)C [VOLASERTIB]	Myosin light chain kinase, smooth muscle (Homo sapiens, UniProt Q15746)	> 30 µM (inactive)

// query Please respond with reported Kd (system Myosin light chain kinase, smooth muscle (Homo sapiens, UniProt Q15746)) for Cc1ccc(-n2nc(C(C)(C)C)cc2NC(=O)NCc2cc(F)ccc2Oc2ccc3c(cnn3CCO)c2)cc1 [PEXMETINIB] . Note: in the data inactive means no Kd found up to 30 µM.
// result 0.081 µM

// query Please respond with reported Kd (system Myosin light chain kinase, smooth muscle (Homo sapiens, UniProt Q15746)) for CN1CC[C@@H](c2c(O)cc(O)c3c(=O)cc(-c4ccccc4Cl)oc23)[C@@H]1CO . Note: in the data inactive means no Kd found up to 30 µM.
// result > 30 µM (inactive)

// query Please respond with reported Kd (system Myosin light chain kinase, smooth muscle (Homo sapiens, UniProt Q15746)) for C[C@@H]1CN(Cc2ccc(F)cc2)[C@@H](C)CN1C(=O)c1cc2c(C(=O)C(=O)N(C)C)cn(C)c2cc1Cl [TALMAPIMOD] . Note: in the data inactive means no Kd found up to 30 µM.
// result > 30 µM (inactive)

// query Please respond with reported Kd (system Myosin light chain kinase, smooth muscle (Homo sapiens, UniProt Q15746)) for CN1CCC(COc2cnc(-c3cccc(Cn4nc(-c5cccc(C#N)c5)ccc4=O)c3)nc2)CC1 [TEPOTINIB] . Note: in the data inactive means no Kd found up to 30 µM.
// result > 30 µM (inactive)

// query Please respond with reported Kd (system Myosin light chain kinase, smooth muscle (Homo sapiens, UniProt Q15746)) for Cn1cc(-c2ccc3nnc(C(F)(F)c4ccc5ncccc5c4)n3n2)cn1 [JNJ-38877605] . Note: in the data inactive means no Kd found up to 30 µM.
// result > 30 µM (inactive)

// query Please respond with reported Kd (system Myosin light chain kinase, smooth muscle (Homo sapiens, UniProt Q15746)) for CNC(=O)c1ccc(C)c(-n2c(C)cc(OCc3ccc(F)cc3F)c(Br)c2=O)c1 [PH-797804] . Note: in the data inactive means no Kd found up to 30 µM.
// result > 30 µM (inactive)

###

target: LIM domain kinase 1 (Homo sapiens); note: in the data inactive means no Kd found up to 30 µM
Sequence (P53667 whole entry, the tested form may be a part): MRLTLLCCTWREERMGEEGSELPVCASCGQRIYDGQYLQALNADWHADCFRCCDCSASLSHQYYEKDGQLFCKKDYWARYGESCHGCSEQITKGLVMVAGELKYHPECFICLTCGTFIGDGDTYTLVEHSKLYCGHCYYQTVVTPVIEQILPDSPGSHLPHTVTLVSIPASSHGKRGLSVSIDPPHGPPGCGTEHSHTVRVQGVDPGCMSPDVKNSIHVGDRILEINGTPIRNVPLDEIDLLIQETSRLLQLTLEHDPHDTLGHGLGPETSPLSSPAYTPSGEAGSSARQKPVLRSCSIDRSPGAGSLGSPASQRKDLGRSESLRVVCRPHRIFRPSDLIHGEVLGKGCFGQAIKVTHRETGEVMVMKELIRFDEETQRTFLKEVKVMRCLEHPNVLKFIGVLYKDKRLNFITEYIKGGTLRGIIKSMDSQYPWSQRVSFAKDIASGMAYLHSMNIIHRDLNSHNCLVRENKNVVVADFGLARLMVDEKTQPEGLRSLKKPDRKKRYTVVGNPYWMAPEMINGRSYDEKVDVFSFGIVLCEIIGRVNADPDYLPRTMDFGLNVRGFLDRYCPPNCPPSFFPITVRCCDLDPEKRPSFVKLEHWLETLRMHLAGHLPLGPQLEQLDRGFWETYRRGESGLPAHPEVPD
The source made the active and inactive calls.
Output constraint: value belongs to active, inactive

Examples from the recorded data:
molecule	target system	category label
C[C@@H](Nc1cc(F)cc(F)c1)c1cc(C(=O)N(C)C)cc2c(=O)cc(N3CCOCC3)oc12 [AZD-8186]	LIM domain kinase 1 (Homo sapiens)	inactive
CCN1CCN(Cc2ccc(-c3cc4c(N[C@H](C)c5ccccc5)ncnc4[nH]3)cc2)CC1 [AEE-788]	LIM domain kinase 1 (Homo sapiens)	active

Continue with the next molecule.
// query What call does the record list for CNS(=O)(=O)Nc1nccc(Cc2c(C)c3ccc(Oc4ncccn4)cc3oc2=O)c1F [AVUTOMETINIB] ?
// result inactive

###

biological target: Tyrosine-protein kinase Lck (Homo sapiens, UniProt P06239); note: in the data inactive means no Kd found up to 30 µM
Sequence (P06239 whole entry): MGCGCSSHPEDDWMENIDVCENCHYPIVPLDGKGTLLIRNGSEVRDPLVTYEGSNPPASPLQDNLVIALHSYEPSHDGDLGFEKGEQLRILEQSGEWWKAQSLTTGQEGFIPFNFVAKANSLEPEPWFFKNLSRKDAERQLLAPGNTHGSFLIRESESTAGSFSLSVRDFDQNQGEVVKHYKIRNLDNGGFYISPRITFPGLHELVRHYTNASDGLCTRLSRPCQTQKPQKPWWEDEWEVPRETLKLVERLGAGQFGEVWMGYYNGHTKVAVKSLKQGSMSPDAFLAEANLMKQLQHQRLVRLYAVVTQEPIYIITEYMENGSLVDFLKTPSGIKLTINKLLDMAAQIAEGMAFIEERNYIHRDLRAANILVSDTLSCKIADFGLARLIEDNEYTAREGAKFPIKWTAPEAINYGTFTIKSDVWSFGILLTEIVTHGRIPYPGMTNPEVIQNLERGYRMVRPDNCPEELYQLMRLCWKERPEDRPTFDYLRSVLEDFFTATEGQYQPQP
Active and inactive are the calls of the source.
Output constraint: value belongs to active, inactive

compound	category label
O=C1NC(=O)/C(=C/c2ccc3nccc(-c4ccncc4)c3c2)S1 [GSK-1059615]	inactive
CO[C@H]1C[C@@H]2CC[C@@H](C)[C@@](O)(O2)C(=O)C(=O)N2CCCC[C@H]2C(=O)O[C@H]([C@H](C)C[C@@H]2CC[C@@H](OCCO)[C@H](OC)C2)CC(=O)[C@H](C)/C=C(\C)[C@@H](O)[C@@H](OC)C(=O)[C@H](C)C[C@H](C)/C=C/C=C/C=C/1C [EVEROLIMUS]	inactive
CN1CCC(CNc2ccc3ncc(-c4cccc(OC(F)(F)F)c4)n3n2)CC1 [SGI-1776]	inactive
O=C(O)[C@]1(Cc2cccc(Nc3nccs3)n2)CC[C@@H](Oc2cccc(Cl)c2F)CC1 [MK-5108]	inactive
C=CC(=O)N1CCC(Oc2cc3c(Nc4ccc(Cl)c(Cl)c4F)ncnc3cc2OC)CC1 [POZIOTINIB]	inactive
Cc1c(F)cc(C(=O)NC2CC2)cc1-c1ccc(C(=O)NCC(C)(C)C)cn1 [LOSMAPIMOD]	inactive

Continue with the next compound.
// query What call does the record list for Cn1cc(-c2ccc3nnc(C(F)(F)c4ccc5ncccc5c4)n3n2)cn1 [JNJ-38877605] ?
// result inactive

###

biological target: UniProtKB Q9NSY1
Sequence (Q9NSY1 whole entry): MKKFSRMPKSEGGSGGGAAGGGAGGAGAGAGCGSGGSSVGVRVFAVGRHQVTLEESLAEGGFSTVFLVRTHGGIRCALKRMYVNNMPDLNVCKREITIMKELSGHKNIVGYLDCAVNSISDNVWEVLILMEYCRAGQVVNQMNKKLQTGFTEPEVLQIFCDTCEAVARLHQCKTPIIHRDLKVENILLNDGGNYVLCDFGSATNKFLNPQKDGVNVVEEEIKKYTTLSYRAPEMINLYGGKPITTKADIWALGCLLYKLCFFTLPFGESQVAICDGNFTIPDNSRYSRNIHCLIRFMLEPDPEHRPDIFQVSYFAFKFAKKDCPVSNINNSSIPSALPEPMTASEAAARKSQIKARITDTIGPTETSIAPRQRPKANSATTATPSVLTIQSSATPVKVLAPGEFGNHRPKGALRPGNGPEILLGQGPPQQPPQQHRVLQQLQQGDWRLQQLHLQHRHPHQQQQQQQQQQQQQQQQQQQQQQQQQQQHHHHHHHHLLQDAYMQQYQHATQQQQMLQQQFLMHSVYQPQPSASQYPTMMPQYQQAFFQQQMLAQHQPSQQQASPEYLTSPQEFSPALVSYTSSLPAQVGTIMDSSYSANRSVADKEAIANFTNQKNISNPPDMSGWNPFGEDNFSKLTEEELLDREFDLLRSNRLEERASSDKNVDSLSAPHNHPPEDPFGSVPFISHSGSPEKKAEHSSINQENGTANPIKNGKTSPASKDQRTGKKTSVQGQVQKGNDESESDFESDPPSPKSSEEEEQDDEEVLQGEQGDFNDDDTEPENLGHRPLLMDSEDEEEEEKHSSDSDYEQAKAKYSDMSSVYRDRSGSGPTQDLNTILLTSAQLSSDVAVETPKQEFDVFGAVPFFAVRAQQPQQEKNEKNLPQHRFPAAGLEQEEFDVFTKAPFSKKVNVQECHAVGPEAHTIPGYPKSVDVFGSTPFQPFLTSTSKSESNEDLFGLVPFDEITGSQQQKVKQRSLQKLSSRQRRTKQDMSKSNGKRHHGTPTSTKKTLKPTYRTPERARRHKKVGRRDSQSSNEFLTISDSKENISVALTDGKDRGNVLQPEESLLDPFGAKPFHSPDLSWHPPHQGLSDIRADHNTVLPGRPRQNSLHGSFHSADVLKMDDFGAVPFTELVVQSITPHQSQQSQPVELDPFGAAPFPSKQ
Calls of active or inactive are those of the source.
Output constraint: value belongs to active, inactive

Examples from the recorded data:
compound	category label
Cn1ncc(Cl)c1-c1cc(C(=O)N[C@H](CN)Cc2cccc(F)c2)sc1Cl [AFURESERTIB]	inactive
OCCn1cc(-c2cnc3nnn(Cc4ccc5ncccc5c4)c3n2)cn1 [PF-04217903]	inactive
O=C(Nc1ccc(-c2ccnc(Nc3ccc(N4CCOCC4)cc3)n2)cc1)C1CCCN1 (centres undefined) [XL-019]	active

Continue with the next compound.
// query What call does the record list for CN1CCC(COc2cnc(-c3cccc(Cn4nc(-c5cccc(C#N)c5)ccc4=O)c3)nc2)CC1 [TEPOTINIB] ?
// result inactive

###

A set of molecules tested on Calcium/calmodulin-dependent protein kinase type IV (Homo sapiens), with measured Kd:
Activity calls are given as the source filed them.

// solved cases for Kd follow
cpd smiles	target system	Kd
CNS(=O)(=O)Nc1nccc(Cc2c(C)c3ccc(Oc4ncccn4)cc3oc2=O)c1F	Calcium/calmodulin-dependent protein kinase type IV (Homo sapiens)	> 30 µM (inactive)
Cc1nc(N)sc1-c1ccnc(Nc2ccc(N3CCOCC3)cc2)n1	Calcium/calmodulin-dependent protein kinase type IV (Homo sapiens)	> 30 µM (inactive)
O=C(O)[C@]1(Cc2cccc(Nc3nccs3)n2)CC[C@@H](Oc2cccc(Cl)c2F)CC1	Calcium/calmodulin-dependent protein kinase type IV (Homo sapiens)	> 30 µM (inactive)
Cc1ccc(-n2nc(C(C)(C)C)cc2NC(=O)NCc2cc(F)ccc2Oc2ccc3c(cnn3CCO)c2)cc1	Calcium/calmodulin-dependent protein kinase type IV (Homo sapiens)	> 30 µM (inactive)

Next molecule, Kd to be filled in.
// query Dear colleague, please send me the reported Kd for OCCn1cc(-c2cnc3nnn(Cc4ccc5ncccc5c4)c3n2)cn1 when you can.
// result > 30 µM (inactive)

###

target: Tyrosine-protein kinase FRK (Homo sapiens, UniProt P42685); note: in the data inactive means no Kd found up to 30 µM
Sequence (P42685 whole entry): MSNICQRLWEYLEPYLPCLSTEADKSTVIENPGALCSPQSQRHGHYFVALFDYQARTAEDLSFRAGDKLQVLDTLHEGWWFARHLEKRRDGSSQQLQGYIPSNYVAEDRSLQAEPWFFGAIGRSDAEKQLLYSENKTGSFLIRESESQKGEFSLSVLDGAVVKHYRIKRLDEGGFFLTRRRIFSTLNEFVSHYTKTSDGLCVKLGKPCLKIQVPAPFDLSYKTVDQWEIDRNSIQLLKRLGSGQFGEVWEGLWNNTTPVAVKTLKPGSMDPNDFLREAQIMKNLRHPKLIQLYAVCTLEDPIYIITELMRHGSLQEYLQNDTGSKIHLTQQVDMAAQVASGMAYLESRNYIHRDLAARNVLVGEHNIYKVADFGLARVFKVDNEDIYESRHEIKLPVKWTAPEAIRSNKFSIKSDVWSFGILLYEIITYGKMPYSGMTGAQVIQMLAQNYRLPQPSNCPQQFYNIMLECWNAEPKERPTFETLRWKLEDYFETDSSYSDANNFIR
Calls of active or inactive are those of the source.
Output constraint: value belongs to true (1) = active, false (0) = inactive

Examples from the recorded data:
compound	category label
CCCS(=O)(=O)Nc1ccc(F)c(C(=O)c2c[nH]c3ncc(-c4ccc(Cl)cc4)cc23)c1F [VEMURAFENIB]	false (0)
CN1N=C(N)c2cn([C@@H]3O[C@H](COP(=O)(O)O)[C@@H](O)[C@H]3O)c3ncnc1c23 [TRICIRIBINE PHOSPHATE]	false (0)
Cc1cc(-c2cc(O)ccc2Cl)cc2nnc(Nc3ccc(OCCN4CCCC4)cc3)nc12	true (1)

Continue with the next compound.
// query What call does the record list for Cc1ccc(NC(=O)c2ccc(CN3CC[C@H](N(C)C)C3)c(C(F)(F)F)c2)cc1Nc1nccc(-c2cncnc2)n1 [BAFETINIB] ?
// result true (1)

###

Active and inactive are the calls of the source.
A set of molecules tested on Interleukin-1 receptor-associated kinase 1 (Homo sapiens, UniProt P51617), with measured Kd:

// solved cases for Kd follow
molecule	observed result
CCn1c(=O)c(-c2cc[nH]n2)cc2c(C)nc(N)nc21 [VOXTALISIB]	> 30 µM (inactive)
CCCS(=O)(=O)Nc1ccc(F)c(C(=O)c2c[nH]c3ncc(-c4ccc(Cl)cc4)cc23)c1F [VEMURAFENIB]	> 30 µM (inactive)
CCc1cnn2c(NCc3ccc[n+]([O-])c3)cc(N3CCCC[C@H]3CCO)nc12 [DINACICLIB]	> 30 µM (inactive)

Next molecule, Kd to be filled in.
// query Please respond with reported Kd (system Interleukin-1 receptor-associated kinase 1 (Homo sapiens, UniProt P51617)) for Cc1cc([C@@H](C)Nc2ccccc2C(=O)O)c2nc(N3CCOCC3)cc(=O)n2c1 [AZD-6482] . Note: in the data inactive means no Kd found up to 30 µM.
// result > 30 µM (inactive)
